SYSTEM TESTED: Insulin-like growth factor 1 receptor (Homo sapiens) (UniProt P08069);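 also: values are mean percent inhibition of IGF1R kinase activity, from the GSK published kinase inhibitor set (PKIS) screening panel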
Sequence (P08069 31-736 limits assumed): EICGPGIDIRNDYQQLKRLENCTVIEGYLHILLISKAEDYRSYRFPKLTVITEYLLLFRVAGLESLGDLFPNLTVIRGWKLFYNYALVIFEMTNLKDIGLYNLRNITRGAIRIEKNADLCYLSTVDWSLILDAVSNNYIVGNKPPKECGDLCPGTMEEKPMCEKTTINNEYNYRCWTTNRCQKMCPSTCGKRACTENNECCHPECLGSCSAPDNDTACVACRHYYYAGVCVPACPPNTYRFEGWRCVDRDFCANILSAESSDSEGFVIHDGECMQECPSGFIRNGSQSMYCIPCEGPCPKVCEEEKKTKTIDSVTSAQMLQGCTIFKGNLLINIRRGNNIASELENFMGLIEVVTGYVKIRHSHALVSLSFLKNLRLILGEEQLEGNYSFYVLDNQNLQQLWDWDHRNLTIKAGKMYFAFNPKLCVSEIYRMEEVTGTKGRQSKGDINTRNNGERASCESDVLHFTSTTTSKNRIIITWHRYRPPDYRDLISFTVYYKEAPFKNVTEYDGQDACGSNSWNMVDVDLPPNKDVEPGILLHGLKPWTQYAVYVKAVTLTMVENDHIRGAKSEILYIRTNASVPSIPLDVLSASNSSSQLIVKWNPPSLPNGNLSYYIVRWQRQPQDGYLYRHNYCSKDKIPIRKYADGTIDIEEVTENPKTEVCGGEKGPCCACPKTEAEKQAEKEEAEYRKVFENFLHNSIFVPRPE
Sequence (P08069 741-1367 limits assumed): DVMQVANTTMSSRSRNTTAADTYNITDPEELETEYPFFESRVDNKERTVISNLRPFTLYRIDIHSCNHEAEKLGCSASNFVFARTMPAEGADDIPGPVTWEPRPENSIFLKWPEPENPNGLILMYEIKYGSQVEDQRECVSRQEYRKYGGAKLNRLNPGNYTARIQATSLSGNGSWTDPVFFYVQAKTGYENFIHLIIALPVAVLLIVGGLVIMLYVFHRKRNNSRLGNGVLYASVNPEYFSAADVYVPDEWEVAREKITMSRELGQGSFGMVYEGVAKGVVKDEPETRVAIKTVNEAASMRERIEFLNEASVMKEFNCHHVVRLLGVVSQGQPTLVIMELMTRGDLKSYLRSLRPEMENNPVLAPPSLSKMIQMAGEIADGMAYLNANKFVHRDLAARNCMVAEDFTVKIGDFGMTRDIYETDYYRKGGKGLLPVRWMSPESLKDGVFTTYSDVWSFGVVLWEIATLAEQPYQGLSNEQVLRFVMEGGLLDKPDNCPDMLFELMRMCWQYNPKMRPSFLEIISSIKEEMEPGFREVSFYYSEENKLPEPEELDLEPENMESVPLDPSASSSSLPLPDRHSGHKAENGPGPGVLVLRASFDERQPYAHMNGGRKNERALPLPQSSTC
REPORTED CONDITIONS: at 0.1 µM
QUANTITY MEASURED: inhibition (%)
Report the value in % with no unit label.

Report inhibition for `NS(=O)(=O)c1ccc(NC=C2C(=O)Nc3ccc4ncsc4c32)cc1`
12.2

Tell me its inhibition given `CN(C)c1cc2c(Nc3ccc4c(cnn4Cc4ccccc4)c3)ncnc2cn1` as the entry.
0.45

// Input: `[O-][S+]1CCN(Cc2ccc(-c3ccc4ncnc(Nc5ccc(OCc6ccccc6)c(Cl)c5)c4c3)o2)CC1` . Output its inhibition only.
14.4

For the molecule `CN1CCN(C(=O)c2ccc(NC(=O)Nc3ccc(N(C)c4ccnc(Nc5ccc(CS(C)(=O)=O)cc5)n4)cc3)cc2)CC1` , report inhibition.
3.48

Query inhibition for `Cc1nc(-c2ccccc2)n2nc(NCCCN3CCOCC3)ncc12`
3.15

Annotate the molecule `C[C@@H](Oc1cc(-n2cnc3ccc(OCC4CCN(C)CC4)cc32)sc1C(N)=O)c1ccccc1C(F)(F)F` with its measured inhibition.
-4.89

Tell me measured inhibition for `COc1cc(Nc2nccc(-c3cnn4ncccc34)n2)cc(OC)c1` please.
13.8

Entry `Cc1ccc2c(c1)/C(=N/Nc1ccc(S(N)(=O)=O)cc1)C(=O)N2` needs its inhibition filled in; supply it.
-1.37

Give inhibition for `Cc1ccc(O)cc1Nc1ccnc2ccc(S(C)(=O)=O)cc12`
4.41

# return recorded inhibition for entry `O=C1Nc2ccccc2/C1=C/Nc1ccc2[nH]c(=O)[nH]c2c1`
7.08

Where these numbers come from: ChEMBL document CHEMBL1961873
